Sourced from patent US7199147B2

List of melting point values.

These solved cases illustrate the format of a correct answer.
CN(CCC(=O)Nc1ccc2[nH]ncc2c1)Cc1ccccc1 ... 140 to 141 °C
NCc1ccc(COc2ccc3[nH]ncc3c2)cc1 ... 197 to 198 °C

I'd like to know its melting point. The compound in question is `O=C(CCC(F)(F)F)Nc1ccc2[nH]ncc2c1` 243 to 244 °C (dec.)

Try this compound next: Cc1c(O[C@H]2CCC[C@H](NC3CCCC3)C2)ccc2[nH]ncc12 (relative stereo) 110 to 112 °C

Please answer likewise for `CSc1c(O)ccc2[nH]ncc12` 126 to 128 °C

Record: `CCN[C@H]1CC[C@H](Oc2ccc3[nH]ncc3c2C)CC1` 150 to 151 °C

Now the same for c1cc2[nH]ncc2cc1OC1CCCNCC1 (stereo not shown) 159 to 160 °C

Also need `c1ccc(CN2CCC(CCNc3ccc4[nH]ncc4c3)CC2)cc1` , thanks. 117 to 118 °C

Next compound up: `CC(=O)N1CCC(Nc2ccc3[nH]ncc3c2)CC1` 193 to 195 °C (dec.)

`O=C(CCN1CCCCC1)Nc1ccc2[nH]ncc2c1` , same question. 178 to 179 °C

# repeat for `N#Cc1cccc(COc2ccc3[nH]ncc3c2)c1` 158 to 161 °C

Also `O=C(O)C(F)(F)F.c1cc2[nH]ncc2cc1NC1CCOCC1` ? 242 to 245 °C (dec.)

Another compound to look at: `COc1ccc2ccccc2c1CNc1ccc2[nH]ncc2c1` 183 to 185 °C

Lookup `Cc1c(O[C@H]2CC[C@@H](NC(C)C)CC2)ccc2[nH]ncc12` 166 to 168 °C

Then what about the compound Cc1c(O[C@@H]2CCC[C@H](NCC3CCCC3)C2)ccc2[nH]ncc12 (relative stereo) ? 140 to 142 °C

How about this compound: c1cc2[nH]ncc2cc1OC1CCOCC1 [Example 44] 151 to 152 °C
